From: patent US6355799B1

system: velvetleaf (Abutilon theophrasti, ABUTH); experiment: Pre-emerge test, greenhouse herbicide activity screening; type: in vivo; settings: 250 g ai/ha; pre-emerge; rated 14 days after application; 0 = no damage, 100 = complete death
TEST_READOUT: Pre-emerge Herbicidal Activity ABUTH (phytotoxicity rating, scale 0-100)
Would you mind answering with just the numeric figure?

Problem: Need Pre-emerge Herbicidal Activity ABUTH (phytotoxicity rating, scale 0-100), item CCCc1ccc(C(=O)N(C(=O)c2ccc(CCC)cc2)c2c(OC)c(Cl)cc(F)c2-n2c(=O)cc(C(F)(F)F)n(C)c2=O)cc1
Solution: 100

Problem: Give its Pre-emerge Herbicidal Activity ABUTH (phytotoxicity rating, scale 0-100) value. Item: Cn1c(C(F)(F)F)cc(=O)n(-c2c(F)cc(Cl)c(OCc3ccccc3)c2N)c1=O
Solution: 100

Problem: Find the recorded Pre-emerge Herbicidal Activity ABUTH (phytotoxicity rating, scale 0-100) belonging to COc1c(Cl)cc(F)c(-n2c(=O)cc(C(F)(F)F)n(C)c2=O)c1N and report it.
Solution: 100

Problem: Report Pre-emerge Herbicidal Activity ABUTH (phytotoxicity rating, scale 0-100) for C=C(C)C(=O)N(C(=O)C(=C)C)c1c(OC)c(Cl)cc(F)c1-n1c(=O)cc(C(F)(F)F)n(C)c1=O please.
Solution: 0
